Target: METTL16 MTD–U6 snRNA Δ interaction (Homo sapiens)
Construct: METTL16 MTD (1–291) was subcloned to pOPINB plasmid; His tag followed by HRV 3C cleavage site (N, cleaved yes)
Sequence (Q86W50 1-291): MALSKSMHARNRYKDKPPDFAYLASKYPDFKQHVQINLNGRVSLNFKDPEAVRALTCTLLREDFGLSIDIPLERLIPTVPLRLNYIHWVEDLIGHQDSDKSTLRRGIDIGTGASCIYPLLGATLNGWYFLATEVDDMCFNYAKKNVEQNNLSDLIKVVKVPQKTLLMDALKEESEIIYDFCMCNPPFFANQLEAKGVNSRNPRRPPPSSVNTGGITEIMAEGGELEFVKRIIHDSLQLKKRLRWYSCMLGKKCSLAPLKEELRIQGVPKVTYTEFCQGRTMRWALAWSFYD
Experiment: FP assay with Cy5-labeled U6 snRNA Δ
Record form. Attribute: pIC50. Fill in for each entry.
Answers are plain numbers, as −log10 of the molar value.

[
  {
    "COMPOUND": "O=C1N=C(NS(=O)(=O)c2ccc(C(=O)O)cc2)SC1=C1C(=O)Nc2ccc(Cl)cc21 [Compound 27]",
    "pIC50": 5.18
  }
]

State recorded pIC50 for all listed compounds.
1. CN1C(=O)C(=C2SC(NS(=O)(=O)c3ccc(C(=O)O)cc3)=NC2=O)c2cc([N+](=O)[O-])ccc21 [Compound 46]
2. CN1C(=O)C(=C2SC(NS(=O)(=O)c3ccc(C(=O)O)cc3)=NC2=O)c2cc(Br)ccc21 [Compound 45]
3. O=C1N=C(NS(=O)(=O)c2ccc(C(=O)O)cc2)SC1=C1C(=O)Nc2ccc(Br)cc21 [Compound 47]
4. CN1C(=O)C(=C2SC(NS(=O)(=O)c3cccc(C(=O)O)c3)=NC2=O)c2cc(Br)ccc21 [Compound 49]

5.55
5.60
5.19
5.28

====

target: METTL16–MAT2A-hp1 mRNA interaction (METTL16 MTD 1–291, FAM-labeled MAT2A-hp1 RNA) (Homo sapiens, UniProt Q86W50); assay: Fluorescence polarization (FP) assay, disruption of METTL16 binding to FAM-MAT2A-hp1 RNA
pIC50: −log10 of the molar value.
// f strictly below 5 in pIC50; t otherwise

Check out these entries, answers already filled in.
[
  {
    "SMILES REPRESENTATION": "COC(=O)c1ccc(S(=O)(=O)NC2=NC(=O)C(=C3C(=O)N(C)c4ccc(Br)cc43)S2)cc1",
    "LABEL CLASS": "f"
  },
  {
    "SMILES REPRESENTATION": "COc1ccc(S(=O)(=O)NC2=NC(=O)C(=C3C(=O)Nc4ccc(OC)cc43)S2)cc1",
    "LABEL CLASS": "f"
  },
  {
    "SMILES REPRESENTATION": "O=C1CSC(NS(=O)(=O)c2ccccc2)=N1",
    "LABEL CLASS": "f"
  },
  {
    "SMILES REPRESENTATION": "CN1C(=O)C(=C2SC(NS(=O)(=O)c3ccc(C(=O)O)cc3)=NC2=O)c2cc([N+](=O)[O-])ccc21",
    "LABEL CLASS": "t"
  },
  {
    "SMILES REPRESENTATION": "COc1ccc(S(=O)(=O)NC2=NC(=O)C(=C3C(=O)Nc4c(F)cccc43)S2)cc1",
    "LABEL CLASS": "f"
  }
]

Now look at this one.
Reported pIC50 at or above 5? COc1ccc(S(=O)(=O)NC2=NC(=O)C(=C3C(=O)N(C)c4cc(F)ccc43)S2)cc1
f
